- MEASUREMENT_TARGET: FGFR1 (Homo sapiens, UniProt P11362)
- Sequence (P11362 22-822): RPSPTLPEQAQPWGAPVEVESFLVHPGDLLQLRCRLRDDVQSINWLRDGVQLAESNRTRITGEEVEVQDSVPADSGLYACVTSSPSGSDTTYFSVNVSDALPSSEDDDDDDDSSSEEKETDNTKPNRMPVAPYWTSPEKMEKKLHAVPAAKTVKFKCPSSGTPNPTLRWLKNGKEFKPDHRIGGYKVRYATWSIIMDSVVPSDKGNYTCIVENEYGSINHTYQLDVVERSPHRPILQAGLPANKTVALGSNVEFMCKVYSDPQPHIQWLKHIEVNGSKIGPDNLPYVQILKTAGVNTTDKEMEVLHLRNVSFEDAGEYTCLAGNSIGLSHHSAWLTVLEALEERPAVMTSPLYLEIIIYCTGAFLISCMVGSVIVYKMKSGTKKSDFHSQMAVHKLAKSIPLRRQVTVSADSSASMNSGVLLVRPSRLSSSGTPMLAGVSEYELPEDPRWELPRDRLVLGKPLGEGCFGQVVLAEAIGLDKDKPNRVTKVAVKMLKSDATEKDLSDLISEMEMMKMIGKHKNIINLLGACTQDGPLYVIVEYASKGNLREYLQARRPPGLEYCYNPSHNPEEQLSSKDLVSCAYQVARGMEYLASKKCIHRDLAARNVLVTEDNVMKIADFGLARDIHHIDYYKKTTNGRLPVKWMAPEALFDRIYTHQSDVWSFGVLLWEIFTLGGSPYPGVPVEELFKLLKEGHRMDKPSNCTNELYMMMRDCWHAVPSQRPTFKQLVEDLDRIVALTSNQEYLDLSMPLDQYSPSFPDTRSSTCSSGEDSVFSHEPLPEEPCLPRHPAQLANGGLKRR
- ASSAY_NOTES: Inhibition of receptor tyrosine kinase activity at molecular level (ELISA, Poly(Glu,Tyr)4:1 substrate phosphorylation)
- Format: biochemical
- MEASUREMENT_CONDITIONS: 10 nM compound; average of two independent experiments
READOUT_TYPE: 10 nM inhibition ratio FGFR1

{"columns": ["COMPOUND", "10 nM inhibition ratio FGFR1"],
 "data": [
  ["CN1CCN(Cc2ccc(NC(=O)c3ccc(Cl)c(C#Cc4cc(CO)cnc4N)c3)cc2C(F)(F)F)CC1 [Example 30]", 55.2],
  ["Cc1cnc(N)c(C#Cc2cc(C(=O)Nc3ccc(CN4CCN(C)CC4)c(C(F)(F)F)c3)ccc2Cl)c1 [Example 18]", 65.5],
  ["CN1CCN(Cc2ccc(NC(=O)c3cc(C#N)cc(C#Cc4cccnc4N)c3)cc2C(F)(F)F)CC1 [Example 11]", 54.0],
  ["COCc1cnc(N)c(C#Cc2cc(C(=O)Nc3ccc(CN4CCN(C)CC4)c(C(F)(F)F)c3)ccc2Cl)c1 [Example 31]", 59.3]
]}

Origin of measurements: patent US10988456B2
